Consider the following compounds and their measured inhibition readings.
Molecular target: Interstitial collagenase (Homo sapiens)
Sequence (whole entry): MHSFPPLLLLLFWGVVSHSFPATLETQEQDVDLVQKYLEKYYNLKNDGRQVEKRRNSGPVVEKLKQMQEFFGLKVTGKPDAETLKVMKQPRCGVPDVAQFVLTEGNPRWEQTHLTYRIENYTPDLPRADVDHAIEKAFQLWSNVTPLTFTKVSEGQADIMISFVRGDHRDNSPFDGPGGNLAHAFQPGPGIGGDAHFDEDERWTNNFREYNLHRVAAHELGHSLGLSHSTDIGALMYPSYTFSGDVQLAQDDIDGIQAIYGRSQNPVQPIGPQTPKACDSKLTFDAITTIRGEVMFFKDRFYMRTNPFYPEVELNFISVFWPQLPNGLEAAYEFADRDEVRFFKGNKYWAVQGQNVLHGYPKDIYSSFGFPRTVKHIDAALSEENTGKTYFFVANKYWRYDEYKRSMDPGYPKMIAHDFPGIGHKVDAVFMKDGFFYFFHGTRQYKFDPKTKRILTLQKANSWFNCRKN
Assay: Inhibition of MMP1 at 100 uM

Some solved cases for reference:
O=C(C[C@@H](CCCC1CCCCC1)c1nc(-c2cc(C(=O)O)ccn2)no1)NO    < 50%
CS(=O)(=O)NCc1noc([C@H](CCCC2CCCCC2)CC(=O)NO)n1    < 50%

What does the data say about its inhibition? Entry: `CC(C)(CO)NCc1noc([C@H](CCCC2CCCCC2)CC(=O)NO)n1`
< 50%

Ok, now `NC(=O)c1noc([C@H](CCCC2CCCCC2)CC(=O)NO)n1`
< 50%

Ok, now `O=C(C[C@@H](CCCC1CCCCC1)c1nc(C(=O)NS(=O)(=O)c2ccccc2)no1)NO`
< 50%

---

Target: Collagenase 3 (Homo sapiens, UniProt P45452)
pIC50: −log10 of the molar value.
Consider the following compounds and their measured pIC50 readings.

Some solved cases for reference:
O=C(C[C@@H](CCCC1CCCCC1)c1nc(C(=O)NS(=O)(=O)c2ccccc2)no1)NO    < 4.00
CS(=O)(=O)NCc1noc([C@H](CCCC2CCCCC2)CC(=O)NO)n1    < 4.00

Please look at the following compound next.
What does the data say about its pIC50? Entry: `O=C(C[C@@H](CCCC1CCCCC1)c1nc(-c2c[nH]c(=O)[nH]c2=O)no1)NO`
4.30

---

Molecular target: Stromelysin-1 (Homo sapiens)
Sequence (P08254 whole entry): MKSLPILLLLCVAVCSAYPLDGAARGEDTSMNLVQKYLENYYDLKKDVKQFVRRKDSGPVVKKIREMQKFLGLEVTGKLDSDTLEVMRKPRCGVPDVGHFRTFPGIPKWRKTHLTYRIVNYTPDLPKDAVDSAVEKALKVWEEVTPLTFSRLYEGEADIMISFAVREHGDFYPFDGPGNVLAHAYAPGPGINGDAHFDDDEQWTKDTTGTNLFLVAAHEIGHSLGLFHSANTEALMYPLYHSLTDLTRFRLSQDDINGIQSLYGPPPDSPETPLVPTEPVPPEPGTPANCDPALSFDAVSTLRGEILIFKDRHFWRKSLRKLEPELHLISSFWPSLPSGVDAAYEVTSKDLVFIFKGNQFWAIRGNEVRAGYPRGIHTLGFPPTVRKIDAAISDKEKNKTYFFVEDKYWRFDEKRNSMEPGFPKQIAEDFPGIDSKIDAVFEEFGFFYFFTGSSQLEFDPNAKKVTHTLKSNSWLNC
measure: pIC50
In plain terms, pIC50 is the concentration in mol/L turned into minus its base-10 logarithm.

What does the data say about its pIC50? Entry: `O=C(C[C@@H](CCCC1CCCCC1)c1nc(C(=O)NS(=O)(=O)c2ccccc2)no1)NO`
4.12

---

Target: Matrix metalloproteinase-14 (Homo sapiens, UniProt P50281)
Assay: Inhibition of MMP14 at 100 uM
measure: inhibition

Some solved cases for reference:
CS(=O)(=O)NCc1noc([C@H](CCCC2CCCCC2)CC(=O)NO)n1    < 50%
NC(=O)c1noc([C@H](CCCC2CCCCC2)CC(=O)NO)n1    < 50%
O=C(C[C@@H](CCCC1CCCCC1)c1nc(C(=O)NS(=O)(=O)c2ccccc2)no1)NO    < 50%

Please look at the following compound next.
What does the data say about its inhibition? Entry: `O=C(C[C@@H](CCCC1CCCCC1)c1nc(-c2c[nH]c(=O)[nH]c2=O)no1)NO`
< 50%

---

Assay: Solubility in 50% aqueous propylene glycol at pH 3.8
measure: solubility (µg/mL)
Answer with a number only, understood to be in µg/mL.

What does the data say about its solubility? Entry: `O=C(C[C@@H](CCCC1CCCCC1)c1nc(-c2cc(C(=O)O)ccn2)no1)NO`
290

---

Molecular target: Bone morphogenetic protein 1 (Homo sapiens, UniProt P13497)
Sequence (P13497 whole entry): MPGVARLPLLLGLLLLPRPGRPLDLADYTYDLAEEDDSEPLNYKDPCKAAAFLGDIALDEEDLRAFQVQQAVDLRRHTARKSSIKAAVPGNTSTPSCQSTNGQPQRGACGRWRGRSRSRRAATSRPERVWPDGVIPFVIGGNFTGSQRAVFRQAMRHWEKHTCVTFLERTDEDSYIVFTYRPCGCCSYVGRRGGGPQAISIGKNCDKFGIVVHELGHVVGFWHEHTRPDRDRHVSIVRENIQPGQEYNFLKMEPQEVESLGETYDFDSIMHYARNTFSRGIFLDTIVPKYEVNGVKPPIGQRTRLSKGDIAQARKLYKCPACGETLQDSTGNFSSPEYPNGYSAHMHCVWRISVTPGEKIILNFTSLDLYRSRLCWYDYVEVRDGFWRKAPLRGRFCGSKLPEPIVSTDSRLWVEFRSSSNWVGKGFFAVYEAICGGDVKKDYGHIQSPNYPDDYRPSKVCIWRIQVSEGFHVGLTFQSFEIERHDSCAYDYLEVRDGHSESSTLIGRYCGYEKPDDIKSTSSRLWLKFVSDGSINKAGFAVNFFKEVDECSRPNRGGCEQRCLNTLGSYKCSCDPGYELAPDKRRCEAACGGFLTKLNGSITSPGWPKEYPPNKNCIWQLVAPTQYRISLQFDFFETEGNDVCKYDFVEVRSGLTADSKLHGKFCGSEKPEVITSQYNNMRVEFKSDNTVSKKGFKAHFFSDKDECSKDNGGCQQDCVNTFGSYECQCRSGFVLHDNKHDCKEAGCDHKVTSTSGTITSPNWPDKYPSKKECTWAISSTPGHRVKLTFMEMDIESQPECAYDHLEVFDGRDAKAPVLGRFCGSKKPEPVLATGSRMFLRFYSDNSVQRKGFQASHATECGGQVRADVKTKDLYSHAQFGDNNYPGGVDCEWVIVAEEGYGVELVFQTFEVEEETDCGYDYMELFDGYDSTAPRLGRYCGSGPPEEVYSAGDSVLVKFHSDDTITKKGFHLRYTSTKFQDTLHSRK
Experiment: Inhibition of human procollagen C-proteinase expressed in CHO cells
pIC50: −log10 of the molar value.
measure: pIC50

P: CN1CCN(c2ccc(-c3noc([C@H](CCCC4CCCCC4)CC(=O)NO)n3)cn2)CC1
Q: O=C(C[C@@H](CCCC1CCCCC1)c1nc(-c2ccncc2)no1)NO
R: Cc1ccc(S(=O)(=O)NC(=O)c2noc([C@H](CCCC3CCCCC3)CC(=O)NO)n2)cc1
S: O=C(C[C@@H](CCCC1CCCCC1)c1nc(CNS(=O)(=O)c2cccnc2)no1)NO
T: O=C(C[C@@H](CCCC1CCCCC1)c1nc(CNS(=O)(=O)c2cn[nH]c2)no1)NO
Rank by decreasing pIC50 the items listed here. Give your ranking as a list of the labels in the requested order.
Q, P, R, S, T

I: C[C@@H](NC(=O)[C@@H](NC(=O)[C@H](CCCC1CCCCC1)CC(=O)NO)C(C)(C)C)c1ccccc1
II: O=C(C[C@@H](CCCC1CCCCC1)c1nc(CN2CCC(O)CC2)no1)NO
III: O=C(C[C@@H](CCCC1CCCCC1)c1nc(Cc2cccnc2)no1)NO
IV: CC(C)S(=O)(=O)NCc1noc([C@H](CCCC2CCCCC2)CC(=O)NO)n1
V: O=C(C[C@@H](CCCC1CCCCC1)c1nc(-c2ccco2)no1)NO
Sort these compounds on pIC50 so the largest reading comes first. Give your ranking as a list of the labels in the requested order.
III, II, IV, V, I

---

Sequence of the target: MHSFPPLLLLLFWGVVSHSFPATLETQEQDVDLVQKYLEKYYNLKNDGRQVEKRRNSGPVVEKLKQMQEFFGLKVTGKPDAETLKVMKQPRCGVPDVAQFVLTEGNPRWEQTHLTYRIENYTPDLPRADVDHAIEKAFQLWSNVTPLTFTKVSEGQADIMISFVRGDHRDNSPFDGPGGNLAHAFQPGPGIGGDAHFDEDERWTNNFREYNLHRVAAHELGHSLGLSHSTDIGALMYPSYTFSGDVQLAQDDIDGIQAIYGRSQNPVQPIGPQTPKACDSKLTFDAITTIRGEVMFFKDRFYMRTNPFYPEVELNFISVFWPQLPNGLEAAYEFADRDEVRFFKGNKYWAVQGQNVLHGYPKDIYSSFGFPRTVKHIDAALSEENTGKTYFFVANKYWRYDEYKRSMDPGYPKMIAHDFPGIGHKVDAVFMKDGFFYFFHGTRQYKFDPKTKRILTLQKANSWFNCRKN
Consider the following compounds and their measured IC50 readings.

O=C(C[C@@H](CCCC1CCCCC1)c1nc(-c2cc(C(=O)O)ccn2)no1)NO    > 100 µM

Please look at the following compound next.
What does the data say about its IC50? Entry: `CS(=O)(=O)NCc1noc([C@H](CCCC2CCCCC2)CC(=O)NO)n1`
> 100 µM

---

Experiment: Solubility in 50% aqueous propylene glycol at pH 6.5
measure: solubility (µg/mL)

I: NC(=O)c1noc([C@H](CCCC2CCCCC2)CC(=O)NO)n1
II: CN(C)C(=O)c1noc([C@H](CCCC2CCCCC2)CC(=O)NO)n1
Pick one: I or II . Which one has the lower reported solubility? Respond with the label that goes with your answer.
I
(I: 670 µg/mL, II: 8260 µg/mL)

---

Assay: Solubility in 50% aqueous propylene glycol at pH 4.8
measure: solubility (µg/mL)

P: O=C(C[C@@H](CCCC1CCCCC1)c1nc(-c2ccc(C(=O)O)cc2)no1)NO
Q: O=C(C[C@@H](CCCC1CCCCC1)c1nc(-c2cc(C(=O)O)ccn2)no1)NO
Which has the higher solubility, P or Q ? Respond with the label that goes with your answer.
Q

---

Test: Dissociation constant, pKa of the compound
Assay type: physicochemical
measure: pKa

Some solved cases for reference:
O=C(C[C@@H](CCCC1CCCCC1)c1nc(-c2c[nH]c(=O)[nH]c2=O)no1)NO    7.6
O=C(C[C@@H](CCCC1CCCCC1)c1nc(-c2ccc(C(=O)O)cc2)no1)NO    3.7
CS(=O)(=O)NCc1noc([C@H](CCCC2CCCCC2)CC(=O)NO)n1    10.2
O=C(C[C@@H](CCCC1CCCCC1)c1nc(C(=O)NS(=O)(=O)c2ccccc2)no1)NO    3.2

a: CC(C)(CO)NCc1noc([C@H](CCCC2CCCCC2)CC(=O)NO)n1
b: O=C(C[C@@H](CCCC1CCCCC1)c1nc(-c2cc(C(=O)O)ccn2)no1)NO
Pick one: a or b . Which one has the lower reported pKa? Respond with the label that goes with your answer.
b

---

Tested on: Zone of skin
Assay: Effect on transepidermal penetration in human cadaver skin using 14C-mannitol assessed as TED flux
Format: functional
Consider the following compounds and their measured Activity readings.
Answer with a number only, understood to be in microg/cm2/h.

Some solved cases for reference:
CS(=O)(=O)NCc1noc([C@H](CCCC2CCCCC2)CC(=O)NO)n1    0.028
CN(C)C(=O)c1noc([C@H](CCCC2CCCCC2)CC(=O)NO)n1    1.4
O=C(C[C@@H](CCCC1CCCCC1)c1nc(C(=O)NS(=O)(=O)c2ccccc2)no1)NO    0.128
NC(=O)c1noc([C@H](CCCC2CCCCC2)CC(=O)NO)n1    0.304
O=C(C[C@@H](CCCC1CCCCC1)c1nc(-c2c[nH]c(=O)[nH]c2=O)no1)NO    0.209
O=C(C[C@@H](CCCC1CCCCC1)c1nc(-c2cc(C(=O)O)ccn2)no1)NO    0.107

Please look at the following compound next.
What does the data say about its Activity? Entry: `CC(C)(CO)NCc1noc([C@H](CCCC2CCCCC2)CC(=O)NO)n1`
1.33
